Quick list: melting point per entry.

compound	melting point
Cc1c(OCCSCCn2c([N+](=O)[O-])cnc2C)ccnc1CNc1cnc2ccccc2c1	152 to 155 °C
Cc1c(SCCOCC(F)(F)F)ccnc1CNc1cnc2ccccc2c1.Cl	212 to 215 °C (dec.)
Cc1c(OCCCCSCCn2c([N+](=O)[O-])cnc2C)ccnc1CNc1cnc2ccccc2c1	154 to 158 °C
Cc1c(SCCCSCC2CN(C)C(=O)O2)ccnc1CNc1cnc2ccccc2c1 (stereo not shown)	98 to 100 °C
Cc1c(SCCCSCCn2c([N+](=O)[O-])cnc2C)ccnc1CNc1cnc2ccccc2c1	133 to 135 °C
Cc1c(SCCSCCn2c([N+](=O)[O-])cnc2C)ccnc1CNc1cnc2ccccc2c1	152 to 154 °C
Cc1c(OCCCSCCn2c([N+](=O)[O-])cnc2C)ccnc1CNc1cnc2ccccc2c1	138 to 141 °C

meta.source: patent US6479514B1
